target: human beta2-adrenoceptor (Homo sapiens, UniProt P07550); construct: expressed in transfected cells; host or cells: CHO cells; test: 3H-CGP 12177 whole cell binding, beta2; details: 3H-CGP12177 whole-cell binding, CHO cells expressing human beta2-adrenoceptor; given as negative Log KD; read-out: Beta 2 Log KD (converted)
Sequence (P07550 whole entry): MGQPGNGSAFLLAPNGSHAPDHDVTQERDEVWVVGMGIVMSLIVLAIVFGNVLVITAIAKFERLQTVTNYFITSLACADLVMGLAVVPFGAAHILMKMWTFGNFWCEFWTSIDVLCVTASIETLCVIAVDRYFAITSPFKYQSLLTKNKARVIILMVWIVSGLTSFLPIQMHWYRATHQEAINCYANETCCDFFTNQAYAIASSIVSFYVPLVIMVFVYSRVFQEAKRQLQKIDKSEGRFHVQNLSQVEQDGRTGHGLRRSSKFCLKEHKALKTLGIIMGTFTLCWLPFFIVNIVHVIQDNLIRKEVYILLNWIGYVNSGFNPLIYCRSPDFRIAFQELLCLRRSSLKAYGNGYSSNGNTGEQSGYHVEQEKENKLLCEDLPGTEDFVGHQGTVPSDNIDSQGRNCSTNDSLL
ASSAY_READOUT: Kd (µM)

Completed entries (count: 4):
# COMPOUND, TEST_TARGET, ASSAY_READOUT, ENDPOINT_VALUE
measured = [
    ("COc1ccc2oc(C(O)CNCCNC(=O)Nc3ccc(O)cc3)cc2c1 (stereo not shown) [Example 63d]", "human beta2-adrenoceptor (Homo sapiens, UniProt P07550)", "Kd", 3.16),
    ("Cc1ccc2cc(C(O)CNCCNC(=O)Nc3ccc(O)cc3)oc2c1 (stereo not shown) [Example 63c]", "human beta2-adrenoceptor (Homo sapiens, UniProt P07550)", "Kd", 0.525),
    ("CCOCc1cc2cc(OCC(O)CNCCNC(=O)Nc3ccc(O)cc3)ccc2o1 (stereo not shown) [Example 610a]", "human beta2-adrenoceptor (Homo sapiens, UniProt P07550)", "Kd", 10.2),
    ("O=C(NCCNCC(O)C1COc2ccccc2O1)Nc1ccc(O)cc1 (mixture of isomers) [Example 46b]", "human beta2-adrenoceptor (Homo sapiens, UniProt P07550)", "Kd", 0.0977),
]

(1) O=C(NCCNCC(O)C1Cc2cc(OCCOC3CCCC3)ccc2O1)Nc1ccc(O)cc1 (stereo not shown) [Example 63a]
(2) O=C(NCCNCC(O)COc1ccc2oc(-c3ccccc3)cc(=O)c2c1)Nc1cccc(Cl)c1 (stereo not shown)
QUERY: Hello, I am sorting some records. Could you say if 1 or 2 has the smaller Kd value? Answer by stating the label of the chosen item.
RESULT: 2
(2: 4.47 µM, 1: 26.9 µM)
